All values here come from ChEMBL document CHEMBL1800055.

- protocol_details: Tmax in female rat at 20 mg/kg, po after 24 hrs
- Assay type: ADME, organism-based
- Parameters: dose 20 mg/kg, route oral
- test_parameters: in vivo
observation_type: Tmax

[
  {
    "molecule_smiles": "COCCN1CCC(C(=O)NO)(S(=O)(=O)c2ccc(Oc3ccc(OC(F)(F)F)cc3)cc2)CC1",
    "observation_type": "Tmax",
    "recorded_measurement": "4 h"
  }
]

====

- protocol_details: AUC (0 to infinity) in male mouse at 20 mg/kg, po after 24 hrs
- Format: ADME, organism-based
- Parameters: time infinity, dose 20 mg/kg, route oral
- test_parameters: plasma

[
  {
    "molecule_smiles": "COCCN1CCC(C(=O)NO)(S(=O)(=O)c2ccc(Oc3ccc(OC(F)(F)F)cc3)cc2)CC1",
    "AUC(0-inf) [ng·h/mL]": 29300
  }
]
